Cited source: ChEMBL document CHEMBL3272058

species: Bos taurus; test: Activation of bovine brain cAMP-dependent protein kinase assessed as transfer of p32 to histone using [gamma-32P]ATP at 10^-6 M relative to cAMP triester
quantity.measured: Ratio

Solved cases below.
* Nc1ncnc2c1ncn2[C@@H]1O[C@@H]2CO[P@@](=O)(OCc3ccccc3)O[C@H]2[C@H]1O | 0.49
* Nc1ncnc2c1ncn2[C@@H]1O[C@@H]2CO[P@](=O)(OCc3ccccc3[N+](=O)[O-])O[C@H]2[C@H]1O | 0
* Nc1ncnc2c1ncn2[C@@H]1O[C@@H]2CO[P@@](=O)(OCc3ccccc3[N+](=O)[O-])O[C@H]2[C@H]1O | 0.04

a = CCO[P@]1(=O)OC[C@H]2O[C@@H](n3cnc4c(N)ncnc43)[C@H](O)[C@@H]2O1
b = Nc1ncnc2c1ncn2[C@@H]1O[C@@H]2COP(=O)(OCc3ccccc3)O[C@H]2[C@H]1O (stereo not given in full)
c = Nc1ncnc2c1ncn2[C@@H]1O[C@@H]2CO[P@@](=O)(OCc3ccc([N+](=O)[O-])cc3)O[C@H]2[C@H]1O
d = Nc1ncnc2c1ncn2[C@@H]1O[C@@H]2COP(=O)(OCc3ccccc3)O[C@H]2[C@H]1O (single isomer, unassigned)
Which order do these items take when sorted by rising Ratio? List them. Labels, ranked as asked.
a, c, d, b
(a: 0, c: 0.04, d: 0.09, b: 0.46)

====

assay: Photolysis mediated drug hydrolysis assessed as half life under 366 nm irradiation by liquid chromatography; format: physicochemical
quantity.measured: half-life (min)

• Nc1ncnc2c1ncn2[C@@H]1O[C@@H]2CO[P@](=O)(OCc3ccccc3[N+](=O)[O-])O[C@H]2[C@H]1O = 66
• Nc1ncnc2c1ncn2[C@@H]1O[C@@H]2CO[P@@](=O)(OCc3ccccc3[N+](=O)[O-])O[C@H]2[C@H]1O = 52

====

test: Half life in Mops buffer at pH 6.5 at 30 degC by liquid chromatography; format: physicochemical
quantity.measured: half-life (h)

A = Nc1ncnc2c1ncn2[C@@H]1O[C@@H]2CO[P@](=O)(OCc3ccc([N+](=O)[O-])cc3)O[C@H]2[C@H]1O
B = CCO[P@]1(=O)OC[C@H]2O[C@@H](n3cnc4c(N)ncnc43)[C@H](O)[C@@H]2O1
Compare the recorded half-life of A and B ; state which is larger. Please reply using the label of the selected record.
A
(A: 9.5 h, B: 3 h)

====

species on record: Bos taurus; experiment: Activation of bovine brain cAMP-dependent protein kinase assessed as transfer of p32 to histone using [gamma-32P]ATP at 10^-5 M relative to cAMP triester
quantity.measured: Ratio

Solved cases below.
• CCO[P@]1(=O)OC[C@H]2O[C@@H](n3cnc4c(N)ncnc43)[C@H](O)[C@@H]2O1 = 0.06
• COP1(=O)OC[C@H]2O[C@@H](n3cnc4c(N)ncnc43)[C@H](O)[C@@H]2O1 (stereo not given in full) = 0.52
• Nc1ncnc2c1ncn2[C@@H]1O[C@@H]2COP(=O)(OCc3ccccc3)O[C@H]2[C@H]1O (single isomer, unassigned) = 0.59
• Nc1ncnc2c1ncn2[C@@H]1O[C@@H]2COP(=O)(OCc3ccccc3)O[C@H]2[C@H]1O (stereo not given in full) = 0.84
• Nc1ncnc2c1ncn2[C@@H]1O[C@@H]2CO[P@@](=O)(OCc3ccccc3)O[C@H]2[C@H]1O = 1
• Nc1ncnc2c1ncn2[C@@H]1O[C@@H]2CO[P@](=O)(OCc3ccc([N+](=O)[O-])cc3)O[C@H]2[C@H]1O = 0.24
• Nc1ncnc2c1ncn2[C@@H]1O[C@@H]2CO[P@@](=O)(OCc3ccccc3[N+](=O)[O-])O[C@H]2[C@H]1O = 0.59
• Nc1ncnc2c1ncn2[C@@H]1O[C@@H]2CO[P@](=O)(OCc3ccccc3[N+](=O)[O-])O[C@H]2[C@H]1O = 0.05

a = CCO[P@@]1(=O)OC[C@H]2O[C@@H](n3cnc4c(N)ncnc43)[C@H](O)[C@@H]2O1
b = Nc1ncnc2c1ncn2[C@@H]1O[C@@H]2CO[P@@](=O)(OCc3ccc([N+](=O)[O-])cc3)O[C@H]2[C@H]1O
Smaller Ratio value, a vs b ? Please reply using the label of the selected record.
a
(a: 0.06, b: 0.49)
